- assayExplanation: ACEA_AR_agonist_AUC_viability: ACEA Biosciences xCELLigence Real-Time Cell Analysis on Androgen Receptor Agonism for Viability (AID 2283775)
Inconclusive results are not listed. Calls of active or inactive are those of the source. How the source made its calls: active means hit-call score of the fitted dose curve at least 0.9, where 1 is the maximum; inconclusive means response in the unintended direction; inactive means score below 0.9.
Please reply with one of these outcomes: active, inactive

# outcome recorded in this test, key = CCCCCC(CO)CCC (stereo not given) inactive

Now try NC(=O)NC1NC(=O)NC1=O (stereo not given) . inactive

What do you get for NCCCN1CCOCC1 ? inactive

Try this molecule next: COc1cc(C(C)(C)C)c(O)c(C(C)(C)C)c1 inactive

Query CC(C)C[C@H]1C(=O)N2CCC[C@H]2[C@]2(O)O[C@](NC(=O)[C@@H]3C=C4c5cccc6[nH]c(Br)c(c56)C[C@H]4N(C)C3)(C(C)C)C(=O)N12 next inactive

Same again, this time with CC1COc2ccccc2N1C(=O)C(Cl)Cl (stereo not given) active

Also CC(=O)OCCC(C)CC(C)(C)C (stereo not given) , if possible. inactive

Please give the result for Cc1ccc(C(C)C)cc1O too. inactive

Another molecule: CC(C)CCCCCCCOC(=O)c1ccc(C(=O)OCCCCCCCC(C)C)c(C(=O)OCCCCCCCC(C)C)c1 inactive

Also need CC(C)=CCC[C@](C)(O)[C@@H]1CC=C(C)CC1 , thanks. inactive

Another: O=C(O)c1ccc([N+](=O)[O-])cc1 inactive

Field entry: CCCCc1ccc(N)cc1 inactive

Here is the next molecule: Cc1ccc(S)cc1 inactive

Can you handle CCCCCCCCCCCCCCCCCC(=O)OCC(CC)CCCC (stereo not given) next? inactive

What about O=C[C@@H](O)[C@H](O)[C@H](O)CO ? inactive

How about this molecule: O=Nc1ccc(Nc2ccccc2)cc1 inactive

CCN(CC)c1ccc(C(=C2C=CC(=[N+](CC)CC)C=C2)c2ccc(S(=O)(=O)O)cc2S(=O)(=O)[O-])cc1 , same question. inactive

Quick one: O=C(O)Cc1cccc2ccccc12 inactive

Same read-out for CCCCC(CC)COC(=O)/C=C\C(=O)OCC(CC)CCCC (stereo not given) ? inactive

Another: O=C1C(c2[nH]c3ccc(S(=O)(=O)O)cc3c2O)=Nc2ccc(S(=O)(=O)O)cc21 inactive

====

- assayExplanation: BSK_3C_Vis: BioMAP Diversity Plus: 3C Assay for Morphology Visualization (AID 2283025);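 further: fitted both ways so gain or loss versus DMSO counts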
- details: primary human endothelial cells (HUVEC)
Activity calls are given as the source filed them. Rule for the calls: active = hit-call score of the fitted dose curve at least 0.9, where 1 is the maximum; inactive = score below 0.9.
The reply should be one of these categories: 1.0 (active), 0.0 (inactive)

Hi team, can someone confirm the assay call for CCCCCCCCC=O ? 0.0

Likewise for CC(C)Oc1ccccc1O ? 0.0

Here is the next compound: O=C(O)C[C@H](O)C[C@H](O)/C=C/c1c(C2CC2)nc2ccccc2c1-c1ccc(F)cc1 1.0

====

- assayExplanation: ATG_NF_kB_CIS: Attagene CIS-FACTORIAL HepG2 Assay for human Nuclear Factor Kappa B (NF-kB) (AID 2282991)
- details: HepG2 Attagene cis-factorial NF-kB reporter mRNA; actives raise or lower the signal
- Method: ATG_CIS is a cell-based, multiplexed-readout assay that uses HepG2, a human liver cell line, with measurements taken at 24 hours after chemical dosing in a 24-well plate.ATG_NF_kB_CIS is one of 52 assay component(s) measured or calculated from the ATG_CIS assay. […] This assay endpoint, ATG_NF_kB_CIS, was analyzed with bidirectional fitting relative to DMSO as the negative control and baseline of activity. […]
The source made the active and inactive calls. Rule for the calls: active = hit-call score of the fitted dose curve at least 0.9, where 1 is the maximum; inactive = score below 0.9.
I would appreciate it if you answered using one of these outcomes: yes = active, no = inactive

Could you kindly confirm the outcome this assay logged for CC(=O)O[C@]1(C(C)=O)CC[C@H]2[C@@H]3C[C@H](C)C4=CC(=O)CC[C@]4(C)[C@H]3CC[C@@]21C ? yes

Same lookup for CCCC/C=C\CCCCCCCCCC=O , please. no

Next: CCc1c(C)cc(N)c(CC)c1N no

Another compound: CCCCC/C=C/C=C/C=O no

What do you get for CC(C)(C)c1n[nH]c(=S)n(N)c1=O ? no

Next entry: O=c1[nH]nnc2ccccc12 no

Item: CCCc1ccccc1O no

Follow-up item: C=C[C@@H](C)CCC=C(C)C no

Please give the result for O=C1OC2(c3cc(Br)c(O)c(Br)c3Oc3c2cc(Br)c(O)c3Br)c2c(Cl)c(Cl)c(Cl)c(Cl)c21 too. no

Could you do the same for CC(C)=CCC[C@](C)(O)[C@@H]1CC=C(C)CC1 , please? no

What do you have for C=C[Si](OCC)(OCC)OCC ? no

Origin of values: PubChem BioAssay (EPA / NIEHS)
